TEST PROTOCOL: Toxicity liver stage against HepG2, at 10uM
Type: cell-based
Design: test concentration 10 uM, cell line HepG2-A16-CD81EGFP
RUN PARAMETERS: human, HepG2-A16-CD81EGFP cells; read-out: INHIBITION
Catalogue of cytotoxicity at 10 µM readings, one per entry.
A number alone suffices; assume %.

CN(C)C(=O)c1cn[nH]c1C1(C)CCCN(Cc2ccccn2)C1 (centres undefined); 4.68
Cc1nc2ncccn2c1C(=O)N1CCc2[nH]cnc2C1; 7.94
CNC(=O)NCC(CO)Cc1ccccc1OC(F)(F)F (centres undefined); 5.97
CC(=O)N1CCN(Cc2ccncc2)CC2(CC(=O)N(C)C2)C1 (centres undefined); -1.83
Cn1cc(C(=O)N2CCCN(C3Cc4ccccc4C3)CC2)cn1; -3.68

Enquiry: Which cytotoxicity at 10 µM value is on record for CN(c1ncccc1CNC(=O)c1csnn1)C1CCCCC1 ?
Return: -9.31

Enquiry: Similarly, Cc1ccc(OCC(=O)NCc2sccc2C)nc1 ?
Return: -0.509

Enquiry: Similarly, NC(=O)c1cc2c(nc1-c1ccc3c(c1)OCCO3)CCC2 ?
Return: -1.88

Enquiry: Similarly, CN(C)C(CNc1c(NCc2ccco2)c(=O)c1=O)c1ccccc1 (centres undefined) ?
Return: 5.16

Enquiry: Similarly, Cc1nc(C)n(CC2CCCN2Cc2nnc(-c3ccco3)o2)n1 (centres undefined) ?
Return: 11.4

Enquiry: Similarly, Oc1ccc(-c2c(-c3ccccc3)ncn2C[C@H]2CCCN2)cc1 ?
Return: 17.5

Enquiry: Similarly, CC(C)c1nccn1C1CCCN(C(=O)c2cccc3[nH]ncc23)C1 (centres undefined) ?
Return: -0.35

Enquiry: Similarly, CS(=O)(=O)CCNC(=O)N1CC2(CCCC2)c2ccccc21 ?
Return: 0.883

----------
Catalogue of cytotoxicity at 10 µM readings, one per entry.
TEST PROTOCOL: Toxicity liver stage against HepG2, at 10uM
Type: cell-based
Design: test concentration 10 uM, cell line HepG2-A16-CD81EGFP
RUN PARAMETERS: human, HepG2-A16-CD81EGFP cells; read-out: INHIBITION
A number alone suffices; assume %.

Completed entries (count: 6):
COc1ccc(Cl)cc1S(=O)(=O)N(C)CC(=O)Nc1ccccc1; -2.76
CC(C(=O)NCCCn1ccnc1)n1cc(Br)cn1 (stereo unspecified); -13.8
CCc1nc(C)c(-c2nccn2CC2CCCCO2)[nH]1 (stereo unspecified); 3.98
Cn1cccc1C(=O)N1CC[C@H]2[C@H]1CCN2CC1CC1; -3.86
O=S(=O)(NCCc1ccccc1C(F)(F)F)N1CCOCC1; 9.08
COCCC(=O)N1CCC(c2nc(O)cc(-c3ccncc3)n2)C1 (stereo unspecified); -25

Enquiry: Which cytotoxicity at 10 µM value is on record for CCCC(=O)N1CC[C@@H]2[C@H](CC1)N(Cc1cccc(C)n1)CCS2(=O)=O ?
Return: -2.88

Enquiry: Similarly, Cc1noc(C)c1CC(=O)N1CCCC(Cc2ccccn2)C1 (stereo unspecified) ?
Return: 4.75

Enquiry: Similarly, Cc1cnn(CC2CCCN2Cc2noc(-c3ccccc3)n2)c1 (stereo unspecified) ?
Return: 0.441

Enquiry: Similarly, Cc1cn[nH]c1C1COCCN1Cc1cscn1 (stereo unspecified) ?
Return: 2.67

Enquiry: Similarly, CCCN1CCC(CC(=O)N(C)CC(=O)c2ccc(O)cc2)CC1 ?
Return: 1.73

----------
TEST PROTOCOL: Toxicity liver stage against HepG2, at 10uM
Type: cell-based
Set-up: test concentration 10 uM, cell line HepG2-A16-CD81EGFP
RUN PARAMETERS: human, HepG2-A16-CD81EGFP cells; read-out: INHIBITION
Catalogue of cytotoxicity at 10 µM readings, one per entry.
A number alone suffices; assume %.

Completed entries (count: 5):
O=C(Cc1cccs1)N1C[C@H]2CC[C@@H](C1)N(Cc1ccccn1)C2=O; 1.07
CN1CCc2onc(Cn3cccc3)c2C1; 7.25
CCN(CC1CCCO1)C(=O)Nc1cc(C)ccc1S(C)(=O)=O (stereo unspecified); -12.5
CC(=O)N1CCCC(c2ccc(Br)cn2)C1 (stereo unspecified); -24.1
Cc1ccc(NC2CCN(C(=O)CCOCC(F)(F)F)CC2)nn1; -2.78

Enquiry: Which cytotoxicity at 10 µM value is on record for Cc1ncc2c(n1)CN(CC(=O)Nc1cc(C)on1)CC2 ?
Return: -12.4

----------
TEST PROTOCOL: Toxicity liver stage against HepG2, at 10uM
Type: cell-based
Set-up: test concentration 10 uM, cell line HepG2-A16-CD81EGFP
RUN PARAMETERS: human, HepG2-A16-CD81EGFP cells; read-out: INHIBITION
VALUE TYPE: cytotoxicity at 10 µM (%)
A number alone suffices; assume %.

Completed entries (count: 6):
Cc1cnn(CCNc2cnc3ccccc3n2)c1; 11.4
Cc1nc(NCC2CC2)nc2c1COCC21CCNC1 (centres undefined); -72.8
Cc1ccc2c(n1)N(CCN(C)C)CCN(C(=O)c1cscn1)C2; -72.7
CC(=O)Nc1c(C)cnn1Cc1cc(F)ccc1F; 25.3
CCOc1ccc(Cl)cc1CCNC(=O)Cn1ccccc1=O; 8
Nc1c(N2CCOCC2)ncnc1N1CCOCC1; -1.31

Enquiry: Which cytotoxicity at 10 µM value is on record for CN(C)c1ccc(CN2CCC(C(O)Cc3ccccc3)CC2)cn1 (centres undefined) ?
Return: -1.29

Enquiry: Similarly, COC1(CNC(=O)c2ccsc2)CCSC1 (centres undefined) ?
Return: -3.09

Enquiry: Similarly, Cn1cc(CN2CCN(Cc3nccn3C)CC2)cn1 ?
Return: 15.5

Enquiry: Similarly, Clc1ccccc1CNC(Cn1cncn1)c1ccccc1 (centres undefined) ?
Return: -2.88

Enquiry: Similarly, CC(C)N(CC(=O)Nc1cccc(C(=O)N(C)C)c1)C1CC1 ?
Return: -4.81

Enquiry: Similarly, Cn1ccnc1CN1CCCN(C(=O)c2ccc(O)nc2)CC1 ?
Return: -26.3

Enquiry: Similarly, CCN(CC)CC(=O)Nc1ccc(-n2ccc(C(N)=O)n2)cc1 ?
Return: -6.9

----------
TEST PROTOCOL: Toxicity liver stage against HepG2, at 10uM
Type: cell-based
Set-up: test concentration 10 uM, cell line HepG2-A16-CD81EGFP
RUN PARAMETERS: human, HepG2-A16-CD81EGFP cells; read-out: INHIBITION
VALUE TYPE: cytotoxicity at 10 µM (%)
A number alone suffices; assume %.

CCc1c(C(=O)NCC2CCS(=O)(=O)C2)cnn1-c1ccc(C)cc1 (stereo not given); -6.69
CN(C)CCN1CCOCC12CCN(C(=O)C1CC1)CC2; -7.45
CC(C)CC(NCc1cccs1)c1ccccn1 (stereo not given); 3.46
Cc1nc(CCNC(=O)C2CCN(C(C)C)CC2)sc1Cl; -8.06
CC1CCN(c2ccc(CNC(=O)NCCn3ccnc3)cn2)CC1; -9.48

Enquiry: Which cytotoxicity at 10 µM value is on record for COc1ccc(NC(=O)N2CCCC2c2ccco2)c(OC)c1 (stereo not given) ?
Return: 10.8

Enquiry: Similarly, Cc1noc(Cl)c1CCC(=O)N1CCN(c2cnccn2)CC1 ?
Return: -3.5

Enquiry: Similarly, CCC(=O)Nc1ncn(Cc2cccnc2)n1 ?
Return: -11.3

Enquiry: Similarly, O=S(=O)(NC1CCC2(CC1)OCCO2)c1ccccc1Br ?
Return: -9.01

Enquiry: Similarly, CCOC1CC2(CCN(C(=O)Cc3ccccn3)CC2)C1 ?
Return: -90.9

Enquiry: Similarly, COCc1ccc(C(=O)NCCCNc2ccc(C(F)(F)F)cn2)cc1 ?
Return: 2.13

Enquiry: Similarly, CN(C)C(=O)[C@@H]1CCO[C@@H]2CCN(Cc3ccccc3)C[C@@H]21 ?
Return: -12.1

Enquiry: Similarly, CC(CN1CC[C@@H]2CCCC[C@@H]2C1)n1cnc2ccccc21 (stereo not given in full) ?
Return: 7.16

Enquiry: Similarly, COC(=O)CCN(CC1CCOC1)C1CC1 (stereo not given) ?
Return: -9.66

Enquiry: Similarly, CCN(Cc1cscn1)CC1(C)Cc2c(N)nc(N)nc2O1 (stereo not given) ?
Return: 3.35

----------
TEST PROTOCOL: Toxicity liver stage against HepG2, at 10uM
Type: cell-based
Set-up: test concentration 10 uM, cell line HepG2-A16-CD81EGFP
RUN PARAMETERS: human, HepG2-A16-CD81EGFP cells; read-out: INHIBITION
VALUE TYPE: cytotoxicity at 10 µM (%)
A number alone suffices; assume %.

Completed entries (count: 5):
Cc1cc(C)n(-c2cncc(NCCNC(=O)C(C)C)n2)n1; -2.91
Cc1cc(C(=O)N2CCOC[C@H](Oc3cnccn3)C2)c(C(F)(F)F)o1; -1.13
COC(=O)CCN1CCC(C(=O)c2cc(F)ccc2F)CC1; -11.1
Cc1cc(F)ccc1NC(=O)Cn1cc(C(=O)O)ccc1=O; -0.555
OC1CN(Cc2cccc(N3CCOCC3)c2)Cc2ccccc21 (stereo unspecified); -3.15

Query compound follows.
Enquiry: Which cytotoxicity at 10 µM value is on record for CCN1CCC(NC(=O)CN2CCCC2Cn2cncn2)CC1 (stereo unspecified) ?
Return: 6.54
